system tested: DLL3 endogenously expressed on NCI-H82 cells (UniProt Q9NYJ7)
Sequence (Q9NYJ7 27-618): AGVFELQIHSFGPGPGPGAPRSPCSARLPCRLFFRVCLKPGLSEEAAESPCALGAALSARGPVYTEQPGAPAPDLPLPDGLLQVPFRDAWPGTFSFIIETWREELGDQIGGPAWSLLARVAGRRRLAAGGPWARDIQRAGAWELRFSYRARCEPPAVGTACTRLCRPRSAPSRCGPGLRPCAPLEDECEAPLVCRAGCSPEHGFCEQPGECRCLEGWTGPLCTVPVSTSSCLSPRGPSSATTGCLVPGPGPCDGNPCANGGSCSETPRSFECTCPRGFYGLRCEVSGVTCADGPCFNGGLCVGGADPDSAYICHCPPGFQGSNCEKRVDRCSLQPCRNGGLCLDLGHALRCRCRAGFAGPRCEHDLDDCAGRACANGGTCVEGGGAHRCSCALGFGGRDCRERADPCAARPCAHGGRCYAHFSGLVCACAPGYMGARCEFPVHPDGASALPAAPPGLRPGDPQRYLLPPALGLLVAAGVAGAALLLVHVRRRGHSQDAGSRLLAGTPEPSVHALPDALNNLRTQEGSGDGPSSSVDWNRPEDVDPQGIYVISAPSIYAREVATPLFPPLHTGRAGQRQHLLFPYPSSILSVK
procedure summary: FACS on NCI-H82 cells; antibody 0.8 nM
Entries and their measured MFI follow.
quantity name: MFI

binder: Hab015VL4VH1a-hFc (scFv, part only; not given: scFv linker and human IgG1 Fc, V domains shown, not shown: another chain or arm of the molecule; a dimerising Fc or GST; small tags and cut ends) VL: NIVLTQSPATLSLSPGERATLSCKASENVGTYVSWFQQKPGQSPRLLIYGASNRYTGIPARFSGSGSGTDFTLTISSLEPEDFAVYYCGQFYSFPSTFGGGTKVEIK VH: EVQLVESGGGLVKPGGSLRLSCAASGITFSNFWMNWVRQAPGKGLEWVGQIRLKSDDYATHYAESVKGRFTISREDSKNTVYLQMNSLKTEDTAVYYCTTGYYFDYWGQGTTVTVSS
quantity name: MFI
readout number: 993
--
binder: Hab008L1H2a-hFc (scFv, part only; not given: VL-VH linker and human IgG1 Fc, V domains shown, not shown: another chain or arm of the molecule; a dimerising Fc or GST; small tags and cut ends) VL: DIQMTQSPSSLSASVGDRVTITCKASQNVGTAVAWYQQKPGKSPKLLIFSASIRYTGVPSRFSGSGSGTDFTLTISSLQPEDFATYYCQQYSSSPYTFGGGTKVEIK VH: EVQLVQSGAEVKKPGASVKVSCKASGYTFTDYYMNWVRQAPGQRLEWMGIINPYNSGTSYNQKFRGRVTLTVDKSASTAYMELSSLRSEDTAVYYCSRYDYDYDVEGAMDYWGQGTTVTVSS
quantity name: MFI
readout number: 312
--
binder: mab008 scFv-hFc (Fc fusion, part only; not given: linker and human IgG1 Fc, not shown: a dimerising Fc or GST) chain, part: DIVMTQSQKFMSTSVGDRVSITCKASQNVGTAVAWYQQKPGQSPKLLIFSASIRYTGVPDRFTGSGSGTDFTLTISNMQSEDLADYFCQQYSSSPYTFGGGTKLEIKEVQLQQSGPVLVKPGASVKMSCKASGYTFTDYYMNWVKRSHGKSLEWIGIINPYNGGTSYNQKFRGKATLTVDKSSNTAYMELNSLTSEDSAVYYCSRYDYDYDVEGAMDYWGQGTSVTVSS
quantity name: MFI
readout number: 176

Origin of the recorded values: patent EP4786492A1
